# target.under.test: HLA-B*15:01
# procedure.summary: IEDB peptide-MHC binding, purified MHC/direct/fluorescence; filed as Kd, often an IC50 or EC50 that approximates it; bounds were set here for any values at or beyond the usual limits of such assays
# run.parameters: source organism: West Nile virus

>  <ordered.residues>
VHREWFMDL

>  <Kd>
≥ 20 µM

$$$$

---

# target.under.test: HLA-A*31:01
# procedure.summary: IEDB peptide-MHC binding, purified MHC/direct/fluorescence; filed as Kd, often an IC50 or EC50 that approximates it; bounds were set here for any values at or beyond the usual limits of such assays
# run.parameters: source organism: Reston ebolavirus - Reston
pKd: −log10 of the molar value.
Documented pKd across a set of sequences
recorded.metric: pKd

>  <ordered.residues>
KHDFIDNPL

>  <target.under.test>
HLA-A*31:01

>  <assay.result>
≤ 4.70

$$$$
>  <ordered.residues>
FHRKKTDAL

>  <target.under.test>
HLA-A*31:01

>  <assay.result>
≤ 4.70

$$$$

---

# target.under.test: HLA-A*26:01
# procedure.summary: IEDB peptide-MHC binding, purified MHC/competitive/fluorescence; filed as Kd, often an IC50 or EC50 that approximates it; bounds were set here for any values at or beyond the usual limits of such assays
# run.parameters: source organism: Bacillus cereus G9241
pKd: −log10 of the molar value.

>  <ordered.residues>
ITNPFFYQM

>  <target.under.test>
HLA-A*26:01

>  <pKd>
≤ 4.70

$$$$

---

# target.under.test: HLA-B*51:01
# procedure.summary: IEDB peptide-MHC binding, purified MHC/competitive/fluorescence; filed as Kd, often an IC50 or EC50 that approximates it; bounds were set here for any values at or beyond the usual limits of such assays
# run.parameters: source organism: Streptococcus pneumoniae TIGR4
pKd: −log10 of the molar value.

>  <ordered.residues>
YQVEGATRV

>  <target.under.test>
HLA-B*51:01

>  <pKd>
≤ 4.70

$$$$

---

# target.under.test: HLA-B*48:01
# procedure.summary: IEDB peptide-MHC binding, purified MHC/direct/fluorescence; filed as Kd, often an IC50 or EC50 that approximates it; bounds were set here for any values at or beyond the usual limits of such assays
# run.parameters: source organism: Cryptosporidium hominis
pKd: −log10 of the molar value.

>  <ordered.residues>
FMKSRVYSI

>  <target.under.test>
HLA-B*48:01

>  <pKd>
≤ 4.70

$$$$

---

# target.under.test: HLA-A*11:01
# procedure.summary: IEDB peptide-MHC binding, purified MHC/competitive/radioactivity; filed as Kd, often an IC50 or EC50 that approximates it; bounds were set here for any values at or beyond the usual limits of such assays
# run.parameters: source organism: Mammarenavirus choriomeningitidis
recorded.metric: Kd

>  <ordered.residues>
SAYLISIFMH

>  <assay.result>
5.63 µM

$$$$

---

# target.under.test: HLA-A*11:01
# procedure.summary: IEDB peptide-MHC binding, purified MHC/competitive/radioactivity; filed as Kd, often an IC50 or EC50 that approximates it; bounds were set here for any values at or beyond the usual limits of such assays
# run.parameters: source organism: Mammarenavirus machupoense

>  <ordered.residues>
DSVKSILKWH

>  <Kd>
≥ 69.7 µM

$$$$

---

# target.under.test: HLA-A*02:01
# procedure.summary: IEDB peptide-MHC binding, purified MHC/competitive/fluorescence; filed as Kd, often an IC50 or EC50 that approximates it; bounds were set here for any values at or beyond the usual limits of such assays
# run.parameters: source organism: Influenza A virus (A/parakeet/Chiba/1/97(H9N2))
pKd: −log10 of the molar value.
recorded.metric: pKd

>  <ordered.residues>
RQMATTTNPL

>  <recorded.metric>
pKd

>  <assay.result>
6.41

$$$$

---

# target.under.test: HLA-B*45:06
# procedure.summary: IEDB peptide-MHC binding, purified MHC/competitive/fluorescence; filed as Kd, often an IC50 or EC50 that approximates it; bounds were set here for any values at or beyond the usual limits of such assays
# run.parameters: source organism: Mycobacterium tuberculosis C
pKd: −log10 of the molar value.
recorded.metric: pKd

>  <ordered.residues>
YPRNGWPAL

>  <assay.result>
≤ 5.30

$$$$

---

# target.under.test: HLA-A*33:01
# procedure.summary: IEDB peptide-MHC binding, purified MHC/competitive/radioactivity; filed as Kd, often an IC50 or EC50 that approximates it; bounds were set here for any values at or beyond the usual limits of such assays
# run.parameters: source organism: Mammarenavirus guanaritoense
pKd: −log10 of the molar value.

>  <ordered.residues>
DWTDGSRGYR

>  <pKd>
5.93

$$$$

---

# target.under.test: HLA-B*83:01
# procedure.summary: IEDB peptide-MHC binding, purified MHC/competitive/fluorescence; filed as Kd, often an IC50 or EC50 that approximates it; bounds were set here for any values at or beyond the usual limits of such assays
# run.parameters: source organism: Yersinia pestis Nepal516

>  <ordered.residues>
TVYPKTHYV

>  <target.under.test>
HLA-B*83:01

>  <Kd>
≥ 5 µM

$$$$

---

# target.under.test: HLA-B*15:01
# procedure.summary: IEDB peptide-MHC binding, purified MHC/direct/fluorescence; filed as Kd, often an IC50 or EC50 that approximates it; bounds were set here for any values at or beyond the usual limits of such assays
# run.parameters: source organism: Salmonella enterica subsp. enterica serovar Typhimurium
pKd: −log10 of the molar value.

>  <ordered.residues>
MQQSGDEAF

>  <pKd>
6.70

$$$$
>  <ordered.residues>
YQKKNASVY

>  <pKd>
6.48

$$$$

---

# target.under.test: HLA-B*07:02
# procedure.summary: IEDB peptide-MHC binding, purified MHC/direct/fluorescence; filed as Kd, often an IC50 or EC50 that approximates it; bounds were set here for any values at or beyond the usual limits of such assays
# run.parameters: source organism: Escherichia coli O157:H7
pKd: −log10 of the molar value.

>  <ordered.residues>
YQAFRTKVH

>  <pKd>
≤ 4.70

$$$$

---

# target.under.test: HLA-B*51:01
# procedure.summary: IEDB peptide-MHC binding, purified MHC/competitive/fluorescence; filed as Kd, often an IC50 or EC50 that approximates it; bounds were set here for any values at or beyond the usual limits of such assays
# run.parameters: source organism: Yersinia mollaretii ATCC 43969
pKd: −log10 of the molar value.

>  <ordered.residues>
DEQEFFYSQ

>  <pKd>
≤ 4.70

$$$$

---

# target.under.test: HLA-A*01:01
# procedure.summary: IEDB peptide-MHC binding, purified MHC/direct/fluorescence; filed as Kd, often an IC50 or EC50 that approximates it; bounds were set here for any values at or beyond the usual limits of such assays
# run.parameters: source organism: Cowpox virus
recorded.metric: Kd

>  <ordered.residues>
ILQDRIRMY

>  <recorded.metric>
Kd

>  <assay.result>
≥ 20 µM

$$$$

---

Documented Kd across a set of sequences
# target.under.test: HLA-B*44:03
# procedure.summary: IEDB peptide-MHC binding, purified MHC/competitive/radioactivity; filed as Kd, often an IC50 or EC50 that approximates it; bounds were set here for any values at or beyond the usual limits of such assays
# run.parameters: source organism: SARS coronavirus Tor2

>  <ordered.residues>
LEGSVRVVT

>  <target.under.test>
HLA-B*44:03

>  <qualifying.sign>
=

>  <Kd, nM>
986

$$$$
>  <ordered.residues>
GEENFSSRMY

>  <target.under.test>
HLA-B*44:03

>  <qualifying.sign>
=

>  <Kd, nM>
68.3

$$$$
>  <ordered.residues>
FELCDNPFF

>  <target.under.test>
HLA-B*44:03

>  <qualifying.sign>
=

>  <Kd, nM>
58.2

$$$$
>  <ordered.residues>
KEQLQLLMPL

>  <target.under.test>
HLA-B*44:03

>  <qualifying.sign>
=

>  <Kd, nM>
49.1

$$$$
>  <ordered.residues>
LEGYAFEHIV

>  <target.under.test>
HLA-B*44:03

>  <qualifying.sign>
≥

>  <Kd, nM>
28400

$$$$
>  <ordered.residues>
GEVLSLDKL

>  <target.under.test>
HLA-B*44:03

>  <qualifying.sign>
=

>  <Kd, nM>
2330

$$$$
>  <ordered.residues>
SDRVVFVLWA

>  <target.under.test>
HLA-B*44:03

>  <qualifying.sign>
=

>  <Kd, nM>
736

$$$$
>  <ordered.residues>
FEYISDAFSL

>  <target.under.test>
HLA-B*44:03

>  <qualifying.sign>
=

>  <Kd, nM>
1450

$$$$
>  <ordered.residues>
AESHMDADLA

>  <target.under.test>
HLA-B*44:03

>  <qualifying.sign>
=

>  <Kd, nM>
1120

$$$$
>  <ordered.residues>
LEGSISYSEL

>  <target.under.test>
HLA-B*44:03

>  <qualifying.sign>
=

>  <Kd, nM>
1500

$$$$
>  <ordered.residues>
NEYRQYLDA

>  <target.under.test>
HLA-B*44:03

>  <qualifying.sign>
=

>  <Kd, nM>
10900

$$$$

Hey, just so you know, these numbers are from the Immune Epitope Database (IEDB).
